Listed below: median fluorescence intensity, fold over isotype control values for each entry.
- system tested: SARS-CoV-2 full length spike protein (wild type), expressed on the surface of transiently transfected CHO … (SARS-CoV-2, UniProt P0DTC2 14-1273)

antibody 482 (antibody, V domains shown) VH: EVQLVESGGGLVQPGGSLRLSCAASGFTFSSYWMTWVRQAPGKGLEWVANIKQDGSEKYYVDSVKGRFTISRDNAKNSLYLQMNSLRAEDTAVYYCARGVGSWYLGFDYWGQGTLVTVSS VL: NFMLTQPHSVSESPGKTVTISCTGSSGSIASNYVQWYQQRPGSAPTTVIYEDNQRPSGVPDRFSGSIDSSSNSASLTISGLKTEDEADYYCQSYDGSSYVFGTGTKVTVL ... 2.31 fold over isotype

Please find the next binder below.
Prompt line: What does the record list as median fluorescence intensity, fold over isotype control for antibody 454 (antibody, V domains shown) VH: QVQLVQSGAEVKKPGASLKVSCKASGYIFTGYYMHWVRQAPGQGLEWMGWISPNSGGTKYAQKFQGRVTMTRDTSISTAYMELSRLRSDDSAVYYCAREPYYDILTGYYTPRRYLDYWGQGTLVTVSS VL: QSALTQPASVSGSPGQSITISCTGTSSDVGDYNYVSWYQQHPGKVPKLMIYDVSHRPSGVTNRFSGSKSGNTASLTISGLRAEDEADYYCSSYTSSSTYVFGTGTKVTVL ?
Response line: 29.6 fold over isotype

The measured values listed here are drawn from patent US20210292393A1.
